# EXPERIMENT_DESCRIPTION: HT1080 cell viability loss – fluorescence readout (AID 620);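 note: cells exposed to compound overnight then 4 h with Alamar Blue; 0% = vehicle DMSO and 100% = killing control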
# CONDITION_DESCRIPTION: at 10 µM
Screen size: about 87,000 compounds; about 360 (0.41%) were called active. Cut-off read from the data, not from the text of the source: active = cytotoxicity above about 50%; inactive = the rest. Many of the other results were omitted from the sample, so actives are more common in it than they were.
A correct response names exactly one class from 1.0 for active, 0.0 for inactive

Before answering, review these 5 worked examples.
COMPOUND: Cc1cc(C)n(-c2c(F)c(F)c(CO)c(F)c2F)n1
CATEGORY: 0.0
--
COMPOUND: CN(C)c1ncc(C2=C(Cl)C(=O)C(N3CCCC3)=C(Cl)C2=O)s1
CATEGORY: 0.0
--
COMPOUND: O=C(NCC(c1cccnc1)N1CCN(c2ccccc2)CC1)OCc1ccccc1 (stereo unspecified)
CATEGORY: 0.0
--
COMPOUND: CCOc1ccccc1C1CC(=O)Nc2cc3c(cc21)OCCO3 (stereo unspecified)
CATEGORY: 1.0
--
COMPOUND: Cc1noc(C)c1C(=O)N1CCN(CCc2ccccc2)CC1
CATEGORY: 0.0

What did this assay record as the result for CC(C(=O)OCc1nnc(-c2ccccc2)o1)N1C(=O)c2ccccc2C1=O (stereo unspecified) ?
0.0

What did this assay record as the result for CCCOc1ccccc1C1CC(=O)Nc2cc3c(cc21)OCCO3 (stereo unspecified) ?
1.0

What did this assay record as the result for `C/C(=N\NC(=O)c1ccccn1)C12CC3CC(CC(C3)C1)C2` ?
0.0

What did this assay record as the result for `CN1CCN(C2=C(Cl)C(=O)C(c3cnc(N4CCCCC4)s3)=C(Cl)C2=O)CC1` ?
0.0

What did this assay record as the result for Cc1sc2ncnc(NCC3CCCO3)c2c1C (stereo unspecified) ?
0.0

What did this assay record as the result for `Cc1cccc(-c2noc(CCC(=O)NCc3ccco3)n2)c1` ?
0.0

---

# EXPERIMENT_DESCRIPTION: HT1080 cell viability loss – fluorescence readout (AID 620);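 note: cells exposed to compound overnight then 4 h with Alamar Blue; 0% = vehicle DMSO and 100% = killing control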
# CONDITION_DESCRIPTION: at 10 µM, stronger effect = higher value
The campaign covered roughly 87,000 compounds. About 360 (0.41%) were called active. The full list was thinned out, with actives kept by preference.
MEASURE_NAME: cytotoxicity (%)
One number for each entry, in %.

// worked examples, cytotoxicity included
MOLECULE: CCCCOc1ccc(Br)cc1/C(C)=N/NC1=NCCN1
READING_UNIT: %
EXPERIMENTAL_RESULT: 65.1
--
MOLECULE: CCOc1ccc2nc3sc(C(=O)N4CCN(C)CC4)c(N)c3cc2c1
READING_UNIT: %
EXPERIMENTAL_RESULT: -19.5
--
MOLECULE: CCOC(=O)c1[nH]c(C)c(C(=O)N2CCc3ccccc32)c1C
READING_UNIT: %
EXPERIMENTAL_RESULT: 57.9
--
MOLECULE: Cc1ccc(C(C#N)c2ccc3c(C(F)(F)F)cc(C(F)(F)F)nc3n2)cc1 (stereo not drawn)
READING_UNIT: %
EXPERIMENTAL_RESULT: -12.2
--
MOLECULE: COc1ccc(Br)cc1/C(C)=N/NC1=NCCN1
READING_UNIT: %
EXPERIMENTAL_RESULT: -8.6
--
MOLECULE: Cc1cccc2cc3c(N)c(C#N)sc3nc12
READING_UNIT: %
EXPERIMENTAL_RESULT: 2.6
--
MOLECULE: CCOC(=O)c1[nH]c(C)c(C(=O)Nc2ccc(C)cc2C)c1C
READING_UNIT: %
EXPERIMENTAL_RESULT: 52.7
--
MOLECULE: COc1ccccc1NS(=O)(=O)c1cc(Cl)ccc1OC
READING_UNIT: %
EXPERIMENTAL_RESULT: 16.4

Kindly give each listed record's cytotoxicity.
1. CCOC(=O)c1[nH]c(C)c(C(=O)Nc2ccc(C)c(C)c2)c1C
2. N#CC(c1ccccc1)c1ccc2c(C(F)(F)F)cc(C(F)(F)F)nc2n1 (stereo not drawn)
3. COc1ccc2cc3c(N)c(C(=O)N4CCCC4)sc3nc2c1

1: -11.9; 2: -4.8; 3: 3.4

Kindly give each listed record's cytotoxicity.
1. CCCC(C)C1C(C#N)=C(N)Oc2cc(C)oc(=O)c21 (stereo not drawn)
2. CCCCCc1nnc(NC(=O)CS(=O)(=O)Cc2ccccc2)s1
3. O=C(C(NS(=O)(=O)c1cccs1)c1ccccc1)N1CCN(c2ccccc2F)CC1 (stereo not drawn)

1. 0.8
2. -1.5
3. 1.9

Kindly give each listed record's cytotoxicity.
1. Cc1ccc2cc3c(N)c(C(=O)N4CCOCC4)sc3nc2c1
2. Cc1ccc2nc3sc(C(=O)N4CCOCC4)c(N)c3cc2c1
3. Cc1cc(N2CCN(C(=O)c3ccco3)CC2)n2ncc(-c3ccccc3)c2n1
4. CCOC(=O)Cn1c(=O)oc2cc(S(=O)(=O)N3CCN(c4ccccn4)CC3)ccc21

1. 3.2
2. 55.8
3. 5.6
4. -4.7

Kindly give each listed record's cytotoxicity.
1. CCCCCOc1ccc(Br)cc1/C(C)=N/NC1=NCCN1
2. COc1ccc(OC)c(NC(=O)c2[nH]c(C)c(C(C)=O)c2C)c1
3. CC(=O)c1cn(CC(=O)Nc2ccccc2C)c2ccccc12
4. CCOC(=O)c1[nH]c(C)c(C(=O)Nc2ccc(Cl)cc2)c1C
5. Cc1cccc2cc3c(N)c(C(=O)N4CCOCC4)sc3nc12

1: 74.8; 2: 11.3; 3: -1.9; 4: 0.6; 5: 59

---

# EXPERIMENT_DESCRIPTION: HT1080 cell viability loss – fluorescence readout (AID 620);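 note: cells exposed to compound overnight then 4 h with Alamar Blue; 0% = vehicle DMSO and 100% = killing control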
# CONDITION_DESCRIPTION: at 10 µM
Screen size: about 87,000 compounds; about 360 (0.41%) were called active. No stated cut-off is given here; in the data, active means cytotoxicity above about 50%; inactive means the rest. Many of the other results were omitted from the sample, so actives are more common in it than they were.
A correct response names exactly one class from label 1 = active, label 0 = inactive

MOLECULE: O=C(NC1CCCCCC1)C1CCN(C(=O)Cc2ccccc2)CC1
CATEGORY: label 0

MOLECULE: Cc1oc2c(c1C(=O)c1ccccc1)C(=O)C(=O)c1ccccc1-2
CATEGORY: label 1

MOLECULE: COc1ccc(CNC(=O)C2CC(c3ccc(OC)cc3)=NO2)cc1 (stereo unspecified)
CATEGORY: label 0

MOLECULE: COc1ccc(CNC(=O)C2CC(c3ccc(F)cc3)=NO2)cc1 (stereo unspecified)
CATEGORY: label 0

MOLECULE: COc1cc(C2=NOC(C(=O)NCc3ccc(F)cc3)C2)cc(OC)c1OC (stereo unspecified)
CATEGORY: label 1

Now take the following molecule into account.
What did this assay record as the result for `CCCC(=O)Nc1ccc(NC(=O)CCc2ccccc2)cn1` ?
label 0

---

Field: cytotoxicity. Provide a value for each of the compounds that follow.
# EXPERIMENT_DESCRIPTION: HT1080 cell viability loss – fluorescence readout (AID 620);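 note: cells exposed to compound overnight then 4 h with Alamar Blue; 0% = vehicle DMSO and 100% = killing control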
# CONDITION_DESCRIPTION: at 10 µM, stronger effect = higher value
Among all 87,000 compounds or so, about 360 (0.41%) were called active. The list comes from a sample in which actives are over-represented; it also holds close analogues and randomly drawn compounds.
Give bare numbers, in %.

// worked examples, cytotoxicity included
COMPOUND: O=C(O)Cc1ccc(C(=O)c2cccs2)s1
READING_UNIT: %
cytotoxicity: 6.9

COMPOUND: Cc1nnc(Sc2nc3c(c(=O)[nH]c(=O)n3C)n2Cc2ccccc2Cl)s1
READING_UNIT: %
cytotoxicity: 1

COMPOUND: CC(=O)c1ccc(Oc2cc(C)nc(-n3nc(C)cc3C)n2)cc1
READING_UNIT: %
cytotoxicity: 50.3

COMPOUND: CC(=O)N1CCn2c3c(c(=O)c4cc(C)ccc42)CCC31 (configuration not stated)
READING_UNIT: %
cytotoxicity: -5.9

COMPOUND: CCOC(=O)Cn1nc(-c2ccc(Cl)cc2)ccc1=O
READING_UNIT: %
cytotoxicity: -5

Kindly give each listed record's cytotoxicity.
1. CC1CCC(C(C)C)C(OCC(O)CN2CCOCC2)C1 (configuration not stated)
2. CC(=O)c1ccc(OC(C)C)c(CN2CCCCC2)c1
3. Cc1ccccc1NS(=O)(=O)c1ccc(F)cc1

[2.7, 1.8, 6.2]

Kindly give each listed record's cytotoxicity.
1. CCCCOC(=O)Cn1c(=N)n(CCN2CCOCC2)c2ccccc21
2. COc1ccc(OC)c(NS(=O)(=O)c2ccc3c(c2)n(C)c(=O)n3C)c1
3. O=C1CCCN1c1ccc(S(=O)(=O)NCCOc2ccccc2)cc1
4. COc1ccc(C2C3=C(Nc4ncnn42)c2ccccc2CC3)cc1OC (configuration not stated)
5. O=C(N/N=C/C(Br)=C/c1ccccc1)c1n[nH]c2c1CCC2
6. NC(=O)c1ccccc1OCC(=O)NS(=O)(=O)c1ccc(Cl)cc1
7. O=C(CSCCc1ccccn1)Nc1ccccn1

[-3.2, -7.2, -6.1, -2.9, 66.4, -12.8, 3.4]
